# experimental_target: human Alpha-1a Adrenergic receptor (Homo sapiens, UniProt P35348)
# Construct: expressed in transfected cells
# Sequence (P35348 1-466): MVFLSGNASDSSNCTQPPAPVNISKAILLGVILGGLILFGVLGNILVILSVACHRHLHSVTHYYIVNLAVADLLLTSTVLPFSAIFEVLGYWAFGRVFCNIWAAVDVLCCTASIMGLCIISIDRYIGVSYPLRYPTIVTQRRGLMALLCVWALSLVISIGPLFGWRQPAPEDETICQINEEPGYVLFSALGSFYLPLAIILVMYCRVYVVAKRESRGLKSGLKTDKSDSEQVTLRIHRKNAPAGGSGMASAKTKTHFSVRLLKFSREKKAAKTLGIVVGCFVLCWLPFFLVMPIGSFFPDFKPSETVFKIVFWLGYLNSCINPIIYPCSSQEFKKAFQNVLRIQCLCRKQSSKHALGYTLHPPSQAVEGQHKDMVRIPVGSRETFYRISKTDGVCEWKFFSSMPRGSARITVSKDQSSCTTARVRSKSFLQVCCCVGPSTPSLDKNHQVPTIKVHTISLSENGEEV
# protocol_notes: Binding affinity at the human alpha-1A adrenergic receptor
# recorded_conditions: Table 3c; read-out: hAlpha-1a Ki
# From the text: Other receptors: Cell membranes expressing human dopamine D1, D2, D4 and rat D3 receptors were purchased through BioSignal, Inc. (Montreal, Canada). Binding assays using the histamine H1 receptor; dopamine receptors; and α1A, α1B, and α2 adrenergic receptors may be carried out according to the procedures described in U.S. Pat. No. 5,780,485, the disclosure of which is hereby incorporated by reference in its entirety into this application. […]
readout_type: Ki (nM)
# number only, unit nM dropped from output

Look up and state reported Ki for COc1cccc(CC(=O)Nc2cccc(C3CCN(CCCC(=O)c4ccccc4)CC3)c2)c1 [Example 76]
41.3

Tell me Ki reported for CCCC(=O)Nc1cccc(C2CCN(CCCNC(=O)C3=C(COC)NC(=O)N[C@@H]3c3ccc(F)c(F)c3)CC2)c1 [Example 45]
6030

Query Ki for CC(C)OC(CCN1CCC(c2cccc(NC(=O)C(C)C)c2)CC1)c1ccccc1 (stereo not drawn) [Example 100]
704

Give Ki for the following molecule: CC(C)C(=O)Nc1cccc(C2CCN(CC[C@H](Oc3ccc(Cl)cc3)c3ccccc3)CC2)c1 [Example 108]
13.2

Specify measured Ki for CCC(C)C(=O)Nc1cccc(C2CCN(CCCNC(=O)C3=C(COC)NC(=O)N[C@@H]3c3ccc(F)c(F)c3)CC2)c1 (stereo partly drawn) [Example 48] .
16600

Provide one value: measured Ki of COc1cc(C#N)ccc1O[C@@H](CCN1CCC(c2cccc(NC(=O)C(C)C)c2)CC1)c1ccccc1 [Example 118]
719

For the molecule CC(=O)c1cccc(O[C@@H](CCN2CCC(c3cccc(NC(=O)C(C)C)c3)CC2)c2ccccc2)c1 [Example 141] , give its measured Ki value.
3020

Please look at this molecule and report its Ki: Cc1ccc(C(=O)CCCN2CCC(c3cccc(NC(=O)C(C)C)c3)CC2)cc1C [Example 58]
32.1

Quickly give me recorded Ki for CC(C)C(=O)Nc1cccc(C2CCN(CC[C@H](Oc3cc(C(F)(F)F)ccc3F)c3ccccc3)CC2)c1 [Example 122]
944

Please supply the value of reported Ki for the item COCC1=C(C(=O)OC)C(c2ccc(F)c(F)c2)N(C(=O)NCCCN2CCC(c3cc(F)ccc3OC)CC2)C(=O)N1 (stereo not drawn) [Example 115]
49.1

State its Ki for this molecule: CC(=O)c1ccccc1O[C@H](CCN1CCC(c2cccc(NC(=O)C(C)C)c2)CC1)c1ccccc1 [Example 120]
1140

Query Ki for CC(C)C(=O)Nc1cccc(C2CCN(CCCC(=O)c3ccc(Cl)cc3)CC2)c1 [Example 66]
19.4

For COc1cccc(O[C@@H](CCN2CCC(c3cccc(NC(=O)C(C)C)c3)CC2)c2ccccc2)c1 [Example 117] , write its Ki.
310

Query Ki for CCCC(=O)Nc1cccc(C2CCN(CCCNC(=O)N3C(=O)NC(COC)=C(C(=O)OC)[C@@H]3c3ccc(F)c(F)c3)CC2)c1 [Example 44]
11.4

---

# experimental_target: human MCH1 receptor (Homo sapiens, UniProt Q99705)
# Sequence (Q99705 whole entry): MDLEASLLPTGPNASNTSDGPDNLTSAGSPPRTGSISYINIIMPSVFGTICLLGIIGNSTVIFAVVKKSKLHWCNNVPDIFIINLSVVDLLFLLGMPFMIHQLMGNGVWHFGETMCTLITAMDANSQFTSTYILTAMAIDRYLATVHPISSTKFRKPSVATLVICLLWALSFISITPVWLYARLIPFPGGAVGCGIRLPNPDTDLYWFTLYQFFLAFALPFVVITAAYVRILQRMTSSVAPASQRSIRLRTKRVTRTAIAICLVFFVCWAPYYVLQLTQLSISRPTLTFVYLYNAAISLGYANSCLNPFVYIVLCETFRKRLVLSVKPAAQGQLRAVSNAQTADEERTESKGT
# protocol_notes: Intracellular calcium response to MCH in COS-7 cells transfected with MCH1 (fluo-3, FLIPR): antagonist potency
# Format: cell-based
# Design: expressed in transfected cells; host or cells: COS-7
# recorded_conditions: read-out: Kb (nM) hMCH1
Structures can show the parent of a compound that is named as a salt.
Label scheme for Kb: lower than 40 nM is false (0), 40 nM and above is true (1).

API: above_or_equal(metric=Kb, cutoff=40 nM) for item COCC1=C(C(=O)OC)C(c2ccc(F)c(F)c2)N(C(=O)NCCCN2CCC(c3cc(F)c(F)c(F)c3)CC2)C(=O)N1 (single isomer, unassigned; (+))
false (0)

Check if Kb >= 40 nM (inclusive). Item: COCC1=C(C(=O)OC)C(c2ccc(F)c(F)c2)N(C(=O)NCCCN2CCC(c3ccccn3)CC2)C(=O)N1 (single isomer, unassigned; (+)) [Example 17, DIHYDROCHLORIDE]
true (1)

Exam item: decide whether the reported Kb for COC(=O)C1=C(C)NC(=O)N(C(=O)NCCCN2CCC3(CC2)C(=O)CCc2ccccc23)C1c1ccc(F)c(F)c1 (centres unmarked) is at least 40 nM.
true (1)

Check if Kb >= 40 nM (inclusive). Item: COCC1=C(C(=O)OC)C(c2ccc(F)c(F)c2)N(C(=O)NCCCN2CCC(c3cccc4ccccc34)CC2)C(=O)N1 (single isomer, unassigned; (+))
false (0)

---

# experimental_target: human NPY5 receptor (Homo sapiens, UniProt Q15761)
# Construct: expressed in transfected cells
# Sequence (Q15761 whole entry): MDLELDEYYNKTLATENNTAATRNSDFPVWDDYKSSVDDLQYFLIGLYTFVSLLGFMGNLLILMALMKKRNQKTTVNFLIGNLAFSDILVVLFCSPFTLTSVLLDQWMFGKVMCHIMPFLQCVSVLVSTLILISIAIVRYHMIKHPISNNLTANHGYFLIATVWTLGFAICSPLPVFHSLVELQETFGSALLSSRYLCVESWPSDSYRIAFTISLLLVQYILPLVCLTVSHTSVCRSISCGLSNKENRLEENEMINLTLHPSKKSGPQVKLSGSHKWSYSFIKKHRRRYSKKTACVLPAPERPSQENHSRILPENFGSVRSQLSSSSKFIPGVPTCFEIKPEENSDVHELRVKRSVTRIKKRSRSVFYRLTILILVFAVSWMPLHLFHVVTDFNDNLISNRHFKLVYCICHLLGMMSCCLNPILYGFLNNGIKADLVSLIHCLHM
# protocol_notes: Binding affinity at the human NPY5 receptor
# recorded_conditions: Table 3a; read-out: hNPY5 Ki
readout_type: Ki

Specify measured Ki for 2-(3,4-DIFLUOROPHENYL)4,5-DIHYDROIMIDAZOLE-1-CARBOXYLIC ACID {3-[4-PHENYL-4-(4-BROMO-5-METHYLTHIOPNEN-2-YL)]-PROPYL}-AMIDE [Example 19] .
> 50 µM

---

Would you mind telling me the reported Ki of each entry?
# experimental_target: human α1D adrenergic receptor (Homo sapiens, UniProt P25100)
# Sequence (P25100 1-572): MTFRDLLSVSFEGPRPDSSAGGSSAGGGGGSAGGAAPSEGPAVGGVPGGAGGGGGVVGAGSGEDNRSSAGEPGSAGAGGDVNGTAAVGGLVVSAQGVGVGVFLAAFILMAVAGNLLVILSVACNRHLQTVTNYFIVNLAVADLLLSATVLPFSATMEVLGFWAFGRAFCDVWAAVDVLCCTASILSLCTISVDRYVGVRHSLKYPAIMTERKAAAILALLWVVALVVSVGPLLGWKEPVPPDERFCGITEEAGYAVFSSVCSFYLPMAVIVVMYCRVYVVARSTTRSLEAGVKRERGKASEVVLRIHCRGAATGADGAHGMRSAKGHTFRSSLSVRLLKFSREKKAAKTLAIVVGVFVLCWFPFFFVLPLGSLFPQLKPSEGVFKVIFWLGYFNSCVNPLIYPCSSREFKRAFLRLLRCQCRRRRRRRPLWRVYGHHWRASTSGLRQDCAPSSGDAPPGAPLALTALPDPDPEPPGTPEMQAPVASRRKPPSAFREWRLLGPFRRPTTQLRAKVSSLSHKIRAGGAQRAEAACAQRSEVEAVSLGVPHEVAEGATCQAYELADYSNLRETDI
Where a name gives a salt, the structure may show the parent alone.
Respond numerically; units are nM and should not be typed.

# return Ki for COC(=O)C1=C(C)NC(=O)N(C(=O)NCCCN2CCC3(CC2)OCc2ccccc23)C1c1ccc(F)c(F)c1 (stereo not drawn) , test system: human α1D adrenergic receptor (Homo sapiens, UniProt P25100)
207

Answer briefly: Ki recorded on human α1D adrenergic receptor (Homo sapiens, UniProt P25100) for COCC1=C(C(=O)OC)[C@H](c2ccc(F)c(F)c2)N(C(=O)NCCCN2CCC(c3cccc(NC(C)=O)c3)CC2)C(=O)N1
12300

Report Ki under test system human α1D adrenergic receptor (Homo sapiens, UniProt P25100) for COC(=O)C1=C(C)NC(=O)N(C(=O)NCCCN2CCC3(CC2)OCc2ccccc23)C1c1ccc2nonc2c1 (single isomer, unassigned) [Example 18, HYDROCHLORIDE] .
612

---

# experimental_target: rat MCH1 receptor (Rattus norvegicus, UniProt P97639)
# Construct: expressed in transfected cells
# Sequence (P97639 whole entry): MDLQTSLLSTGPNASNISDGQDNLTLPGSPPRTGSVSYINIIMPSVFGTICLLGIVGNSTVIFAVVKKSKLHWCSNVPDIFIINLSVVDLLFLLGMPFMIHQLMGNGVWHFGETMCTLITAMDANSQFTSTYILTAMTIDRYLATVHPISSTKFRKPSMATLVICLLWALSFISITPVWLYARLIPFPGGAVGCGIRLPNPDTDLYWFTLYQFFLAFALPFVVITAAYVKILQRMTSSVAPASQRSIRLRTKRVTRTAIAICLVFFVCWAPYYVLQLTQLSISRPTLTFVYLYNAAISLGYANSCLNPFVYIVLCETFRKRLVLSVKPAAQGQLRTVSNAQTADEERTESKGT
# protocol_notes: Binding affinity (Ki) at the rat MCH1 receptor
# recorded_conditions: Examples 38-141; read-out: Ki (nM) rMCH1
Classify: true when Ki is strictly less than 30 nM; false when Ki is not.

Criterion: Ki strictly below 30 nM. Is it met by CC(C)C(=O)Nc1cccc(C2CCN(CCCCCN3C(=O)c4ccccc4C3=O)CC2)c1 [Example 95] ?
true

Does CC(C)C(=O)Nc1cccc(C2CCN(CCCCCCN3C(=O)c4ccccc4C3=O)CC2)c1 [Example 92] have Ki strictly under 30 nM?
false

Given CC(C)C(=O)Nc1cccc(C2CCN(CC[C@@H](Oc3cc(C(F)(F)F)ccc3F)c3ccccc3)CC2)c1 [Example 121] , is recorded Ki strictly lower than 30 nM?
true

Just wondering, is Ki of CC(=O)Nc1cccc(C2CCN(CCCC(=O)c3ccc(Br)cc3)CC2)c1 [Example 88] below 30 nM?
false

Hello, is Ki of the following compound strictly smaller than 30 nM? CC(C)C(=O)Nc1cccc(C2CCN(CC[C@@H](Oc3cc(F)ccc3F)c3ccccc3)CC2)c1 [Example 110]
true

Dear reviewer, please state whether CC(C)C(=O)Nc1cccc(C2CCN(CC[C@H](O)c3ccccc3)CC2)c1 [Example 98] has Ki strictly beneath 30 nM.
false

Is Ki strictly under 30 nM for the entry CC(C)C(=O)Nc1cccc(C2CCN(CC[C@H](Oc3ccc(C(F)(F)F)cc3)c3ccccc3)CC2)c1 [Example 109] ?
true

Lab log: compare recorded Ki with 30 nM; is it strictly lower for CCCC(=O)Nc1cccc(C2CCN(CCCNC(=O)C3=C(COC)NC(=O)N[C@@H]3c3ccc(F)c(F)c3)CC2)c1 [Example 45] ?
true

Given COCC1=C(C(=O)OC)[C@H](c2ccc(F)c(F)c2)N(C(=O)NCCCN2CCC(c3cccc(NC(=O)C(C)C)c3)CC2)C(=O)N1 [Example 43] , is recorded Ki strictly lower than 30 nM?
true

Bench note: check whether CC(=O)Nc1cccc(C2CCN(CCCC(=O)c3ccc(Oc4ccccc4)cc3)CC2)c1 [Example 81] shows Ki below 30 nM
false

Problem: For the compound CC(=O)Nc1cccc(C2CCN(CCCC(=O)c3ccc(C)cc3)CC2)c1 [Example 87] , is Ki under 30 nM?
false

# strict comparison: is reported Ki < 30 nM? input = CC(C)C(=O)Nc1cccc(C2CCN(CCCC(c3ccc(F)cc3)c3ccc(F)cc3)CC2)c1 [Example 101]
true

Quick check: Ki of CC(=O)Nc1cccc(C2CCN(CCCC(=O)c3ccc(Cl)cc3)CC2)c1 [Example 65] under 30 nM?
false

Determine if CC(C)C(=O)Nc1cccc(C2CCN(CC[C@@H](c3ccccc3)N3C(=O)c4ccccc4C3=O)CC2)c1 [Example 138] shows Ki strictly lower than 30 nM.
true

Confirm or reject: Ki of CC(C)C(=O)Nc1cccc(C2CCN(Cc3cc(C(F)(F)F)cc(C(F)(F)F)c3)CC2)c1 [Example 103] lies strictly below 30 nM
false

Hello, is Ki of the following compound strictly smaller than 30 nM? O=C(Cc1ccccc1)Nc1cccc(C2CCN(CCCC(=O)c3ccc(Cl)cc3)CC2)c1 [Example 68]
false

Report whether reported Ki is lower than 30 nM (strictly) for CC(C)C(=O)Nc1cccc(C2CCN(CCCCN3C(=O)c4ccccc4C3=O)CC2)c1 [Example 94]
true

For this compound, is Ki lower than 30 nM? CCS(=O)(=O)Nc1cccc(C2CCN(CCCC(=O)c3ccc(C)c(C)c3)CC2)c1 [Example 64]
false

Please state whether Ki is below 30 nM for CC(C)C(=O)Nc1cccc(C2CCN(CC[C@H](Oc3ccc(-c4ccccc4)cc3)c3ccccc3)CC2)c1 [Example 134]
true

Please state whether Ki is below 30 nM for CC(C)C(=O)Nc1cccc(C2CCN(CCCN3C(=O)c4ccccc4C3=O)CC2)c1 [Example 97]
false

Does the reported Ki of the following compound sit strictly below 30 nM? COCC(=O)Nc1cccc(C2CCN(CCCC(=O)c3ccc(C)c(C)c3)CC2)c1 [Example 62]
false

Check if Ki falls below 30 nM for CC(C)C(=O)Nc1cccc(C2CCN(CC[C@H](Oc3ccc(Cl)cc3)c3ccccc3)CC2)c1 [Example 108] .
true

Is 30 nM strictly greater than the compound's reported Ki? compound: CC(=O)Nc1cccc(C2CCN(CCCC(=O)c3ccc(C)c(C)c3)CC2)c1 [Example 57]
false

Does the reported Ki of the following compound sit strictly below 30 nM? COc1ccc(O[C@H](CCN2CCC(c3ccc(NC(=O)C(C)C)cc3)CC2)c2ccccc2)cc1OC [Example 140]
false

Given Cc1ccc(C(=O)CCCN2CCC(c3cccc(NS(C)(=O)=O)c3)CC2)cc1C [Example 63] , is recorded Ki strictly lower than 30 nM?
false

Lab note: Ki threshold 30 nM. Does this compound come in strictly under it? CC(C)C(=O)Nc1cccc(C2CCN(CC[C@H](OC(=O)c3cccc4ccccc34)c3ccccc3)CC2)c1 [Example 125]
false

Strictly below 30 nM in Ki? COc1ccc(C(=O)CCCN2CCC(c3cccc(NC(=O)Cc4ccccc4)c3)CC2)c(OC)c1 [Example 79]
false

Regarding CC(C)C(=O)Nc1cccc(C2CCN(CC[C@@H](Oc3ccccc3[N+](=O)[O-])c3ccccc3)CC2)c1 [Example 133] , kindly confirm whether its Ki is beneath 30 nM.
true

Is 30 nM strictly greater than the compound's reported Ki? compound: COc1cccc(CC(=O)Nc2cccc(C3CCN(CCCC(=O)c4ccc(Oc5ccccc5)cc4)CC3)c2)c1 [Example 83]
false

Given CC(=O)Nc1cccc(C2CCN(CCCC(=O)c3ccccc3)CC2)c1 [Example 73] , is recorded Ki strictly lower than 30 nM?
false
